Exercise: for every item that follows, state its recorded Kd.
target-or-test-system: Human PD-1-Fc (R&D Systems cat #1086-PD-050), biotinylated (human) (UniProt Q15116)
Sequence (Q15116 25-167 limits assumed): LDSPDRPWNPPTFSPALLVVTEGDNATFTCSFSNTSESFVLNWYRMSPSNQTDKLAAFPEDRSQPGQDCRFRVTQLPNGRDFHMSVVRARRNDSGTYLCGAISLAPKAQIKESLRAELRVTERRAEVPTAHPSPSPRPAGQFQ
experiment-notes: SPR (Table 2)
Give the quantity in nM, number only.

Qu. Sample 977978 (designed binder, not fully specified; D-protein) TIDQWLLKNAKEDAIAELKKAGITCDLYFNWINVAGSVSSVNFHKNYILKAHA — what was its Kd?
Ans. 114

Qu. Sample RFX-977296 (designed binder, D-protein) TIDQWLLKNAKEDAIAELKKAGITSDLYFNWINVAGSVSSVNFHKNYILKAHA — what was its Kd?
Ans. 1510
